assay remarks: Stability of the compound in DMEM media assessed as compound remaining at 250 uM after 2 hrs by HPLC analysis
Assay type: physicochemical
condition details: read-out: Stability
property label: remaining at 2 h, 250 µM
Form entry: enter the amount, then its unit.

// remaining at 2 h, 250 µM lookup, key: CC1=CC(=O)c2c(COC(N)=O)c3n(c2C1=O)C[C@H]1[C@@H]3N1C (stereo partly specified) 89%

----------
assay remarks: Stability of the compound in DMEM media assessed as compound remaining at 213 uM after 0.5 hrs by HPLC analysis
Assay type: physicochemical
condition details: read-out: Stability
property label: remaining at 0.5 h, 213 µM

// remaining at 0.5 h, 213 µM lookup, key: CN1[C@@H]2c3c(COC(N)=O)c4c(n3C[C@@H]21)C(=O)C=CC4=O (stereo partly specified) 50%

----------
Tested on: HepG2
assay remarks: Antiproliferative activity against human HepG2 cells after 48 hrs by resazurin reduction assay
Type: functional, cell-based
condition details: HepG2, 48 h
For each of the compounds below, state its IC50.
Answers are plain numbers, in µM.

Here are 2 compounds together with their reported answers.
{"columns": ["compound", "property label", "test result"],
 "data": [
  ["CN1[C@@H]2c3c(COC(N)=O)c4c(n3C[C@@H]21)C(=O)C=CC4=O (stereo partly drawn)", "IC50", 7.87],
  ["CC1=CC(=O)c2c(COC(N)=O)c3n(c2C1=O)C[C@H]1[C@@H]3N1C (stereo partly drawn)", "IC50", 0.342]
]}

// IC50 lookup, key: CO[C@@]12[C@H](COC(N)=O)C3=C(C(=O)C(C)=C(N)C3=O)N1C[C@@H]1N[C@@H]12 [MITOMYCIN] 2.94
